The measured values listed here are drawn from patent US20120237528A1.

Measured % IL-8 Inhibition accompanies every entry in the list below.
# target system: endogenous human tissue factor on MDA-MB-231 breast cancer cells (human, UniProt P13726 33-295); note: test concentration or dose not given here
# test details: cell-based or functional assay
The reply should be a number in %, with the unit left off.

[
  {
    "binder": "M59 (antibody, V domains shown, FR4 is its own entry; also called H22/L3) VH: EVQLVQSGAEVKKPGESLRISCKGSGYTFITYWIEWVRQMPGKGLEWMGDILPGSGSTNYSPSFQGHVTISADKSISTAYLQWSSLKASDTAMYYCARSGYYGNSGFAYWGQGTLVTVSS VL: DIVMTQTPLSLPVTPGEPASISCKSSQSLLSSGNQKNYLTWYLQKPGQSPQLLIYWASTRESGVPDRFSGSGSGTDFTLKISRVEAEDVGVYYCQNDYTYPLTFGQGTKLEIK",
    "value units": "%",
    "% IL-8 Inhibition": 83.8
  }
]

In the following, a different binder is considered.
Value lookup for % IL-8 Inhibition; key = M60 (antibody, V domains shown, complete MAb; FR4 is its own entry; also called H22/L4) VH: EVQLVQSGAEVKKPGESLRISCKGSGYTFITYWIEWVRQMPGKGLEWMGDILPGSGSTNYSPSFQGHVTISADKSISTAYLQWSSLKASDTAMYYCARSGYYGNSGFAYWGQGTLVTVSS VL: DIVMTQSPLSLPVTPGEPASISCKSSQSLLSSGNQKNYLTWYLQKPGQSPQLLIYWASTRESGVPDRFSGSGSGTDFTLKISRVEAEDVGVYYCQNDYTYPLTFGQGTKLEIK
99.6
